- Tgt: peptide 91a (human)
- Procedure Text: ITC
Property Name: Kd
I'd appreciate it if you wrote the number followed by its unit.

In: Given the entry EELARLEREYQDLLNVKMALDIEIATYRKLLEALESR [peptide 374a] , report its measured Kd.
Out: 3 µM

All figures here come from paper PMC7217734.
